Data credit: PubChem BioAssay AID1918941

Tested on: SW 1271 complex spheroids, viability
ASSAY: Anticancer human tumor SW 1271 cell line growth inhibition [LSD1];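 further: spheroids exposed to agents for 7 days before luminescence read; 100% = DMSO vehicle control viability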
MEASUREMENT_CONDITIONS: second compound 0.316 µM; first compound 0.00316 µM; hits give low values

{"COMPOUND": "Cn1ncnc1C1c2n[nH]c(=O)c3cc(F)cc(c23)NC1c1ccc(F)cc1 (stereo unspecified) + NC1CCC(NC2CC2c2ccccc2)CC1", "viability, T/C": "103%"}
{"COMPOUND": "Nc1ncn(C2CC(O)C(CO)O2)c(=O)n1 (stereo unspecified) + NC1CC1c1ccc(-c2cccc(O)c2)cc1", "viability, T/C": "68%"}
{"COMPOUND": "CC1COCCN1c1cc(-c2ccnn2C)c2ccnc(-c3ccn[nH]3)c2n1 (stereo unspecified) + NC1CCC(NC2CC2c2ccccc2)CC1", "viability, T/C": "71.4%"}
{"COMPOUND": "CC(C)CC(NC(=O)C(Cc1ccccc1)NC(=O)c1cnccn1)B(O)O (stereo unspecified) + NC1CC1c1ccc(-c2cccc(O)c2)cc1", "viability, T/C": "0.09%"}
{"COMPOUND": "CC(C)CC(NC(=O)CNC(=O)c1cc(Cl)ccc1Cl)B1OC(=O)CC(CC(=O)O)(C(=O)O)O1 (stereo unspecified) + NC1CC1c1ccc(-c2cccc(O)c2)cc1", "viability, T/C": "72.1%"}
{"COMPOUND": "COc1cc(Nc2ncc3c(n2)-c2ccc(Cl)cc2C(c2c(F)cccc2OC)=NC3)ccc1C(=O)O + NC1CC1c1ccc(-c2cccc(O)c2)cc1", "viability, T/C": "62.6%"}
{"COMPOUND": "O=C(C=Cn1cnc(-c2cc(C(F)(F)F)cc(C(F)(F)F)c2)n1)NNc1cnccn1 + NC1CC1c1ccc(-c2cccc(O)c2)cc1", "viability, T/C": "68.7%"}
{"COMPOUND": "CC(C)CC(NC(=O)CNC(=O)c1cc(Cl)ccc1Cl)B1OC(=O)CC(CC(=O)O)(C(=O)O)O1 (stereo unspecified) + NC1CCC(NC2CC2c2ccccc2)CC1", "viability, T/C": "78.1%"}
{"COMPOUND": "O=C(C=Cn1cnc(-c2cc(C(F)(F)F)cc(C(F)(F)F)c2)n1)NNc1cnccn1 + NC1CCC(NC2CC2c2ccccc2)CC1", "viability, T/C": "84.5%"}
{"COMPOUND": "CC[C@@]1(O)C(=O)OCc2c1cc1n(c2=O)Cc2cc3c(CN(C)C)c(O)ccc3nc2-1 + NC1CC1c1ccc(-c2cccc(O)c2)cc1", "viability, T/C": "77.4%"}
{"COMPOUND": "CC(C)CC(NC(=O)C(Cc1ccccc1)NC(=O)c1cnccn1)B(O)O (stereo unspecified) + NC1CCC(NC2CC2c2ccccc2)CC1", "viability, T/C": "0.12%"}
{"COMPOUND": "Nc1ncn(C2CC(O)C(CO)O2)c(=O)n1 (stereo unspecified) + NC1CCC(NC2CC2c2ccccc2)CC1", "viability, T/C": "91.3%"}
{"COMPOUND": "CC1COCCN1c1cc(-c2ccnn2C)c2ccnc(-c3ccn[nH]3)c2n1 (stereo unspecified) + NC1CC1c1ccc(-c2cccc(O)c2)cc1", "viability, T/C": "55.5%"}
{"COMPOUND": "COc1cc(Nc2ncc3c(n2)-c2ccc(Cl)cc2C(c2c(F)cccc2OC)=NC3)ccc1C(=O)O + NC1CCC(NC2CC2c2ccccc2)CC1", "viability, T/C": "81.2%"}
{"COMPOUND": "Cn1ncnc1C1c2n[nH]c(=O)c3cc(F)cc(c23)NC1c1ccc(F)cc1 (stereo unspecified) + NC1CC1c1ccc(-c2cccc(O)c2)cc1", "viability, T/C": "67.5%"}
{"COMPOUND": "CC[C@@]1(O)C(=O)OCc2c1cc1n(c2=O)Cc2cc3c(CN(C)C)c(O)ccc3nc2-1 + NC1CCC(NC2CC2c2ccccc2)CC1", "viability, T/C": "71.6%"}
